Target: T1, human TIGIT protein (human, UniProt Q495A1 22-141, limits assumed)
T1 construct: Recombinant protein (Genentech) used in ELISA screening and as SPR analyte; also called TIGIT antigen
T1 sequence: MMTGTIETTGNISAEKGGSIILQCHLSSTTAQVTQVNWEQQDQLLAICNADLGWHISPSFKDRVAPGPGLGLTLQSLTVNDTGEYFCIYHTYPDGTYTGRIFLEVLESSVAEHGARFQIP
Assay: SPR, captured mAb
QUANTITY MEASURED: koff (s⁻¹)
Please reply with the bare figure in s⁻¹ and do not write the unit itself.

# count of solved cases: 2
BINDER	koff / s⁻¹
h15C8.L5aH9a (antibody, V domains shown, Final humanized 15C8; keeps rat VH I47, L37, A67, T71 and VL Y71; FR/HVR pieces) VH: EVQLVQSGAEVKKPGASVKVSCKASGYTFTEHSIYWLRQAPGQRLEIMGRIDPKNGRTYFVDKFKNRATITTDTSASTAYMELSSLRSEDTAVYYCARIDGFYFDFWGQGTLVTVSS VL: DIQLTQSPSFLSASVGDRVTITCKGSQNVNKYLVWYQQKPGKAPKLLIYSTDNLQSGVPSRFSGSGSGTEYTLTISSLQPEDFATYYCYQYNNGFTFGQGTKVEIK	0.000421
h7E7.L3H1 (antibody, V domains shown, VL: Y71F against h7E7.L1H1; FR/HVR pieces) VH: EVQLVQSGAEVKKPGASVKVSCKASGYTFTEYSIYWVRQAPGQRLEIIGRIDPKNGRTYYVDKFKNRATLTADTSASTAYMELSSLRSEDTAVYFCTRIYGFYFDFWGQGTLVTVSS VL: DIQLTQSPSFLSASVGDRVTITCKGSQNVNKYLVWYQQKPGKAPKLLIYNTDNLQSGIPSRFSGSGSGTEFTLTISSLQPEDFATYFCYQYNNGFTFGQGTKVEIK	0.000218

// switching to the query binder
Incoming: koff for h7E7.L1H7 (antibody, V domains shown, VH: F91Y against h7E7.L1H1; FR/HVR pieces) VH: EVQLVQSGAEVKKPGASVKVSCKASGYTFTEYSIYWVRQAPGQRLEIIGRIDPKNGRTYYVDKFKNRATLTADTSASTAYMELSSLRSEDTAVYYCTRIYGFYFDFWGQGTLVTVSS VL: DIQLTQSPSFLSASVGDRVTITCKGSQNVNKYLVWYQQKPGKAPKLLIYNTDNLQSGIPSRFSGSGSGTEYTLTISSLQPEDFATYFCYQYNNGFTFGQGTKVEIK ?
Outgoing: 0.000849
